Cited source for all entries: the supplement of paper PMC7600603

Tested on: DLD1 NRF2-WT
Assay: drug sensitivity score (DSS) cytotoxicity (DSS score); higher = more toxic; extreme values may be limits of the assay
Details: 72 h; CellTox Green cytotoxicity
measure-name: drug sensitivity score
Numbers only.

Some solved cases for reference:
Ask: Given the entry COc1cc(Nc2ncc(F)c(Nc3ccc4c(n3)NC(=O)C(C)(C)O4)n2)cc(OC)c1OC , report its measured drug sensitivity score.
Result: 0

Ask: And then Nc1cc(F)ccc1NC(=O)c1ccc(CNC(=O)/C=C/c2cccnc2)cc1 [Chidamide] , what is it?
Result: 0

Ask: What do we get for NC(=O)NO [Hydroxyurea] ?
Result: 0

Ask: Lookup Cc1nc(Nc2n[nH]c3c2CN(C(=O)N[C@H](CN(C)C)c2ccccc2)C3(C)C)c2sccc2n1
Result: 2.1

Ask: Note, next up: NC[C@@](O)(c1ccc(Cl)cc1)c1ccc(-c2cn[nH]c2)cc1
Result: 0

Ask: Same thing, different molecule: CC(=O)c1cc2c(o1)C(=O)c1ccccc1C2=O
Result: 16.1

Quick one: give me drug sensitivity score for each item below, same order please.
1. CN(C)C/C=C/C(=O)Nc1cc2c(Nc3ccc(F)c(Cl)c3)ncnc2cc1O[C@H]1CCOC1
2. CCNC(=O)c1noc(-c2cc(C(C)C)c(O)cc2O)c1-c1ccc(CN2CCOCC2)cc1
3. CC(C)(C)C[C@@H]1N[C@@H](C(=O)N[C@H]2CC[C@H](O)CC2)[C@H](c2cccc(Cl)c2F)[C@]12C(=O)Nc1cc(Cl)ccc12
4. Cc1cc(Nc2ncc(Cl)c(Nc3ccccc3S(=O)(=O)C(C)C)n2)c(OC(C)C)cc1C1CCNCC1

Result:
1. 0
2. 0
3. 0
4. 0

Field: drug sensitivity score. Fill in for each record below.
1. CN(C)C1CCN(C(=O)c2ccc(NC(=O)Nc3ccc(-c4nc(N5CCOCC5)nc(N5CCOCC5)n4)cc3)cc2)CC1
2. CC#CC(=O)N1CC[C@@H](n2c(=O)n(-c3ccc(Oc4ccccc4)cc3)c3c(N)ncnc32)C1
3. C[C@@H]1CN(Cc2ccc(F)cc2)[C@@H](C)CN1C(=O)c1cc2c(C(=O)C(=O)N(C)C)cn(C)c2cc1Cl
4. CC[C@@H](C(=O)[C@@H](C)[C@@H](O)[C@H](C)[C@@H]1O[C@@H]([C@@H](CC)C(=O)O)CC[C@@H]1C)[C@H]1O[C@]2(C=C[C@@H](O)[C@]3(CC[C@@](C)([C@H]4CC[C@](O)(CC)[C@H](C)O4)O3)O2)[C@H](C)C[C@@H]1C
5. O=C(Nc1cc(Cl)cc2c1[nH]c1cnccc12)c1cccnc1
6. CC[C@H](Nc1ncnc2[nH]cnc12)c1nc2cccc(F)c2c(=O)n1-c1ccccc1

Result:
1. 0
2. 0
3. 0
4. 0.2
5. 0
6. 0

Could you report drug sensitivity score for every entry in the following list?
1. CN(C)Cc1c(C(=O)NCCOc2ccc(C(=O)NO)cc2)oc2ccccc12
2. Nc1nc(NC2CC2)cc(-c2cccc(Cl)c2Cl)n1
3. COc1cc(N2CCC(N3CCN(C)CC3)CC2)ccc1Nc1ncc(Cl)c(Nc2ccccc2P(C)(C)=O)n1
4. O=C1c2c(O)ccc(O)c2C(=O)c2c(NCCNCCO)ccc(NCCNCCO)c21

Result:
1: 7.5; 2: 0; 3: 0; 4: 0

###

Tested on: DLD1 NRF2-WT
Experiment: drug sensitivity score (DSS) viability (DSS score); higher = more sensitive; extreme values may be limits of the assay
Conditions: 72 h; CellTiter-Glo viability
Kindly apply the following: met if drug sensitivity score is less than 4, not met in every other case.

Ask: drug sensitivity score under 4? Item: CC[C@]12C=CCN3CC[C@@]4(c5cc([C@@]6(C(=O)OC)C[C@@H]7C[C@@H](C(C)(F)F)CN(Cc8c6[nH]c6ccccc86)C7)c(OC)cc5N(C)[C@H]4[C@@](O)(C(=O)OC)[C@@H]1OC(C)=O)[C@@H]32 [Vinflunine]
Result: not met

More entries:
Ask: Consider CCCCC(=O)OCC(=O)[C@]1(O)Cc2c(O)c3c(c(O)c2[C@@H](O[C@H]2C[C@H](NC(=O)C(F)(F)F)[C@H](O)[C@H](C)O2)C1)C(=O)c1c(OC)cccc1C3=O [Valrubicin] . Does its drug sensitivity score lie strictly below 4?
Result: not met

Ask: Input N#CC(c1ccnc(OCc2ccc(CN3CCOCC3)cc2)n1)c1nc2ccccc2s1 (stereo unspecified) [Bentamapimod]
Result: met

Ask: Try Cc1cccc(-c2nn3c(c2-c2ccnc4ccc(C(N)=O)cc24)CCC3)n1 [Galunisertib] next.
Result: met

Ask: Check CCN(CC)CCCC(C)Nc1c2ccc(Cl)cc2nc2ccc(OC)cc12 (stereo unspecified) [Mepacrine] too.
Result: not met

Ask: Would you kindly repeat that for O=C(NOCCO)c1ccc2cncn2c1Nc1ccc(I)cc1F [GDC-0623] ?
Result: met

Ask: Would you kindly repeat that for Cc1c2oc3c(C)ccc(C(=O)N[C@@H]4C(=O)N[C@H](C(C)C)C(=O)N5CCC[C@H]5C(=O)N(C)CC(=O)N(C)[C@@H](C(C)C)C(=O)O[C@@H]4C)c3nc-2c(C(=O)N[C@@H]2C(=O)N[C@H](C(C)C)C(=O)N3CCC[C@H]3C(=O)N(C)CC(=O)N(C)[C@@H](C(C)C)C(=O)O[C@@H]2C)c(N)c1=O [Dactinomycin] ?
Result: not met

Ask: Another molecule: CCC/C=C/C=C/C(=O)O[C@H]1/C(=C/C(=O)OC)C[C@H]2C[C@H]([C@@H](C)O)OC(=O)C[C@H](O)C[C@@H]3C[C@H](OC(C)=O)C(C)(C)[C@](O)(C[C@@H]4C/C(=C/C(=O)OC)C[C@H](/C=C/C(C)(C)[C@]1(O)O2)O4)O3 [Bryostatin 1]
Result: met

Ask: Request: CCNC(=O)c1noc(-c2cc(C(C)C)c(O)cc2O)c1-c1ccc(CN2CCOCC2)cc1 [Luminespib]
Result: not met

Ask: Another molecule to look at: C[C@@H](Oc1cc(-c2cnn(C3CCNCC3)c2)cnc1N)c1c(Cl)ccc(F)c1Cl [Crizotinib]
Result: met

Ask: Do the same for CCCCCCCCCCCCCCCCCCOP(=O)([O-])OC1CC[N+](C)(C)CC1 [Perifosine] please
Result: met

###

Tested on: DLD1 NRF2-GOF
Assay: TC50 cytotoxicity; higher = less toxic
Settings: 72 h; CellTox Green cytotoxicity
measure-name: TC50 cytotoxicity

Record excerpt, results attached:
Ask: # input compound: O=C(O)c1ccc2c(c1)nc(Nc1cccc(Cl)c1)c1ccncc12 [Silmitasertib] ; wanted: its TC50 cytotoxicity
Result: > 10000 nM

Ask: Repeat with COc1cc(NS(C)(=O)=O)ccc1Nc1c2ccccc2nc2ccccc12 [Amsacrine]
Result: > 10000 nM

Batch: TC50 cytotoxicity for all items listed.
1. C1=N/C2=N/c3ccc(OCCN4CCCC4)c(c3)COC/C=C/COCc3cccc(c3)C(=C1)N2 [Pacritinib]
2. COc1ccc(-c2nc(N3CCOCC3)c3sc(CN(C)c4ncc(C(=O)NO)cn4)cc3n2)cn1 [CUDC-907]
3. COC[C@H](NC(=O)c1cnc(C)s1)C(=O)N[C@@H](COC)C(=O)N[C@@H](Cc1ccccc1)C(=O)[C@@]1(C)CO1 [Oprozomib]
4. COC(=O)c1ccc([C@H]2c3[nH]c4ccccc4c3C[C@H](C(=O)OC)N2C(=O)CCl)cc1 [RSL3]
5. CS(=O)(=O)N1CCN(Cc2cc3nc(-c4cccc5[nH]ncc45)nc(N4CCOCC4)c3s2)CC1 [Pictilisib]

Result:
1. 1800 nM
2. 509 nM
3. 116 nM
4. > 10000 nM
5. > 10000 nM

###

Hi there, I'd appreciate the recorded EC50 viability for every entry that follows.
Test system: DLD1 NRF2-WT
Settings: 72 h; CellTiter-Glo viability

Solved cases (2 shown):
Ask: Recall the recorded EC50 viability for Cc1ccc(=O)n(-c2ccccc2)c1 with DLD1 NRF2-WT and state it.
Result: > 10 µM

Ask: Then what about the molecule Cc1ccc(-n2nc(C(C)(C)C)cc2NC(=O)Nc2ccc(OCCN3CCOCC3)c3ccccc23)cc1 ?
Result: > 10 µM

Further cases:
Ask: API: value(readout=EC50 viability, system=DLD1 NRF2-WT) for record CN1CCN(c2ccc3nc(-c4c(N)c5c(F)cccc5[nH]c4=O)[nH]c3c2)CC1
Result: > 10 µM

###

System: DLD1 NRF2-WT
Experiment: drug sensitivity score (DSS) viability (DSS score); higher = more sensitive; extreme values may be limits of the assay
Conditions: 72 h; CellTiter-Glo viability
Field: drug sensitivity score. Provide a value for each of the molecules that follow.
Give bare numbers.

// solved cases for drug sensitivity score follow
Ask: Suppose we examine the molecule Cc1ccc(NS(=O)(=O)c2cccc(C#N)c2)c2[nH]cc(C#N)c12 ; what drug sensitivity score value has been reported?
Result: 15.3

Ask: // next record O=C(/C=C/c1cccc(S(=O)(=O)Nc2ccccc2)c1)NO
Result: 9.9

Okay, now this molecule:
Ask: Which measured drug sensitivity score value corresponds to Cc1ccc(Nc2nccc(N(C)c3ccc4c(C)n(C)nc4c3)n2)cc1S(N)(=O)=O ?
Result: 6.9
